What relative viability was measured for each of the following?
Tested on: COR-L 105
protocol.details: relative viability (nuclei count vs DMSO), 5 days (fraction); higher = more cells survive
experimental.context: first compound 2.53 µM
Answers are plain numbers.

Solved cases (4 shown):
{"compound": "O=c1cc(-c2cccc3c2Sc2ccccc2S3)oc(N2CCOCC2)c1 + CC(C)C[C@H](NC(=O)[C@H](Cc1ccccc1)NC(=O)c1cnccn1)B(O)O [Bortezomib] (partner 0.002 µM)", "relative viability": 0.795}
{"compound": "COc1nc(C)cnc1NS(=O)(=O)c1cccnc1-c1ccc(-c2nnco2)cc1 [Zibotentan] + Nc1nc2[nH]cc(CCc3ccc(C(=O)N[C@@H](CCC(=O)O)C(=O)O)cc3)c2c(=O)[nH]1 [Pemetrexed] (partner 0.2 µM)", "relative viability": 1.05}
{"compound": "O=c1cc(-c2cccc3c2Sc2ccccc2S3)oc(N2CCOCC2)c1 + CS(=O)(=O)N1CCN(Cc2cc3nc(-c4cccc5[nH]ncc45)nc(N4CCOCC4)c3s2)CC1 [Pictilisib] (partner 1 µM)", "relative viability": 0.338}
{"compound": "O=c1cc(-c2cccc3c2Sc2ccccc2S3)oc(N2CCOCC2)c1 + Cc1nc(Nc2ncc(C(=O)Nc3c(C)cccc3Cl)s2)cc(N2CCN(CCO)CC2)n1 [Dasatinib] (partner 0.075 µM)", "relative viability": 0.356}

We now examine a further compound.
I have this compound here, COc1nc(C)cnc1NS(=O)(=O)c1cccnc1-c1ccc(-c2nnco2)cc1 [Zibotentan] + C[C@]1(O)C[C@@H](c2nc(-c3ccc4ccc(-c5ccccc5)nc4c3)c3c(N)nccn32)C1 [Linsitinib] (partner 1 µM) , and I need its recorded relative viability.
0.919

###

Test system: HARA
protocol.details: relative viability (nuclei count vs DMSO), 5 days (fraction); higher = more cells survive
experimental.context: first compound 1 µM
value.kind: relative viability
Give bare numbers.

Recorded results for 3 compounds are shown here.
{"compound": "CCN(CC)CCCCNc1ncc2cc(-c3cc(OC)cc(OC)c3)c(NC(=O)NC(C)(C)C)nc2n1 + COc1cccc2cc(-c3nc([C@H]4CC[C@H](C(=O)O)CC4)n4ncnc(N)c34)[nH]c12 [OSI-027] (partner 0.5 µM)", "relative viability": 0.446}
{"compound": "CCN(CC)CCCCNc1ncc2cc(-c3cc(OC)cc(OC)c3)c(NC(=O)NC(C)(C)C)nc2n1 + C[C@@H](Oc1cc(-c2cnn(C3CCNCC3)c2)cnc1N)c1c(Cl)ccc(F)c1Cl [Crizotinib] (partner 1 µM)", "relative viability": 0.816}
{"compound": "CCN(CC)CCCCNc1ncc2cc(-c3cc(OC)cc(OC)c3)c(NC(=O)NC(C)(C)C)nc2n1 + CC(=O)c1c(C)c2cnc(Nc3ccc(N4CCNCC4)cn3)nc2n(C2CCCC2)c1=O [Palbociclib] (partner 0.5 µM)", "relative viability": 0.269}

// switching to the query compound
Given CCN(CC)CCCCNc1ncc2cc(-c3cc(OC)cc(OC)c3)c(NC(=O)NC(C)(C)C)nc2n1 + Cc1cc(Nc2cc(N3CCN(C)CC3)nc(Sc3ccc(NC(=O)C4CC4)cc3)n2)n[nH]1 [Tozasertib] (partner 0.1 µM) , state its recorded relative viability.
0.0989

###

Test system: COR-L23
protocol.details: relative viability (nuclei count vs DMSO), 5 days (fraction); higher = more cells survive
experimental.context: first compound 0.2 µM
Strictly below 0.8 in relative viability: MET. Otherwise: NOT MET.

These solved cases illustrate the format of a correct answer.
{"compound": "COCC1(CO)C(=O)C2CCN1CC2 (stereo not given) [PRIMA-1MET] + Nc1ncn([C@H]2C[C@H](O)[C@@H](CO)O2)c(=O)n1 [Decitabine] (partner 2 µM)", "class.assignment": "MET"}
{"compound": "COCC1(CO)C(=O)C2CCN1CC2 (stereo not given) [PRIMA-1MET] + CS(=O)(=O)N1CCN(Cc2cc3nc(-c4cccc5[nH]ncc45)nc(N4CCOCC4)c3s2)CC1 [Pictilisib] (partner 1 µM)", "class.assignment": "MET"}
{"compound": "COCC1(CO)C(=O)C2CCN1CC2 (stereo not given) [PRIMA-1MET] + C[C@]1(O)C[C@@H](c2nc(-c3ccc4ccc(-c5ccccc5)nc4c3)c3c(N)nccn32)C1 [Linsitinib] (partner 1 µM)", "class.assignment": "NOT MET"}
{"compound": "COCC1(CO)C(=O)C2CCN1CC2 (stereo not given) [PRIMA-1MET] + N=C(N)NC(=N)NCCc1ccccc1 [Phenformin] (partner 250 µM)", "class.assignment": "MET"}

API: query returns whether the compound falls strictly under 0.8 in relative viability. Query: COCC1(CO)C(=O)C2CCN1CC2 (stereo not given) [PRIMA-1MET] + CS(=O)(=O)CCNCc1ccc(-c2ccc3ncnc(Nc4ccc(OCc5cccc(F)c5)c(Cl)c4)c3c2)o1 [Lapatinib] (partner 2 µM)
NOT MET
